Origin of values: a collection of fitness landscapes (doi:10.1016/j.celrep.2020.107928)

# reported one-hybrid fitness for binding NBS DNA; entries follow
B1: Caulobacter ParB omega fusion; a variant is named by its letters at X, in order, B8GW30 (parent)
chain: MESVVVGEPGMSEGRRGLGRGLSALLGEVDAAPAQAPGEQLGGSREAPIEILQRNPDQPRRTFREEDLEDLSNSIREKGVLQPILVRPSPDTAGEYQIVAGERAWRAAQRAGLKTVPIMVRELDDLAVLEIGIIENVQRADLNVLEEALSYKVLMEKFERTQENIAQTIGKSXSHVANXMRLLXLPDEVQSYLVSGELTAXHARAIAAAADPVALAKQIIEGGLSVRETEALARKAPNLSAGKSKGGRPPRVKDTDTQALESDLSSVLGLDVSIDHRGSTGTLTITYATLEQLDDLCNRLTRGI

- Variants of: B1
- measurementDescription: one-hybrid fitness for binding NBS DNA (the Noc-binding site; scaled: cognate 1, non-cognate 0); higher = stronger binding
- measurementConditions: with NBS DNA site
In all, about 81,000 sequences were measured (“one-hybrid fitness for binding NBS DNA”: median about -0.1, highest 2% from about 0.36 on). Shown is part of a subset that was picked to be rich in the highest values.
property: one-hybrid fitness for binding NBS DNA

{"variantKey": "SRNN", "result": "≤ 0.2"}
{"variantKey": "QTLK", "result": "≤ 0.2"}
{"variantKey": "QMHG", "result": "≤ 0.2"}
{"variantKey": "QARY", "result": 0.499}
{"variantKey": "QHYS", "result": 0.324}
{"variantKey": "QAYY", "result": "≤ 0.2"}
{"variantKey": "QRET", "result": 0.603}
{"variantKey": "KPWT", "result": "≤ 0.2"}
{"variantKey": "APVA", "result": "≤ 0.2"}
{"variantKey": "KPWR", "result": "≤ 0.2"}
{"variantKey": "QIHY", "result": "≤ 0.2"}
{"variantKey": "SFVC", "result": "≤ 0.2"}
{"variantKey": "QMYY", "result": "≤ 0.2"}
{"variantKey": "FWRE", "result": "≤ 0.2"}
{"variantKey": "VNPF", "result": "≤ 0.2"}
{"variantKey": "KPLT", "result": "≤ 0.2"}
{"variantKey": "QMYT", "result": 0.436}
{"variantKey": "QRRL", "result": 0.364}
{"variantKey": "NRRH", "result": "≤ 0.2"}
{"variantKey": "RSCS", "result": 0.343}
{"variantKey": "CLLR", "result": "≤ 0.2"}
{"variantKey": "QMHT", "result": 0.497}
{"variantKey": "CTPF", "result": "≤ 0.2"}
{"variantKey": "QAAY", "result": "≤ 0.2"}
{"variantKey": "KRWT", "result": 0.669}
{"variantKey": "QRDC", "result": 0.227}
{"variantKey": "QIRY", "result": 0.378}
{"variantKey": "QADY", "result": "≤ 0.2"}
{"variantKey": "QHRP", "result": 0.201}
{"variantKey": "KCGR", "result": "≤ 0.2"}
{"variantKey": "QRDH", "result": 0.381}
{"variantKey": "HILV", "result": "≤ 0.2"}
{"variantKey": "LTYT", "result": "≤ 0.2"}
{"variantKey": "QAFY", "result": 0.396}
{"variantKey": "KCLT", "result": "≤ 0.2"}
{"variantKey": "SWLF", "result": "≤ 0.2"}
{"variantKey": "QTLF", "result": "≤ 0.2"}
{"variantKey": "QRWG", "result": "≤ 0.2"}
{"variantKey": "KPGR", "result": "≤ 0.2"}
{"variantKey": "QSKF", "result": 0.29}
{"variantKey": "QSDN", "result": "≤ 0.2"}
{"variantKey": "QRNN", "result": 0.459}
{"variantKey": "VYSF", "result": "≤ 0.2"}
{"variantKey": "TANL", "result": "≤ 0.2"}
{"variantKey": "QRDD", "result": "≤ 0.2"}
{"variantKey": "QRNC", "result": 0.44}
{"variantKey": "PTAM", "result": "≤ 0.2"}
{"variantKey": "QAFN", "result": "≤ 0.2"}
{"variantKey": "QMET", "result": 0.295}
{"variantKey": "ERKR", "result": 0.275}
{"variantKey": "LLMP", "result": "≤ 0.2"}
{"variantKey": "QCKF", "result": 0.387}
{"variantKey": "QCRN", "result": 0.482}
{"variantKey": "QRNT", "result": 0.822}
{"variantKey": "QMHQ", "result": "≤ 0.2"}
{"variantKey": "TRRP", "result": "≤ 0.2"}
{"variantKey": "DRQR", "result": "≤ 0.2"}
{"variantKey": "QMDY", "result": "≤ 0.2"}
{"variantKey": "QHRD", "result": 0.234}
{"variantKey": "QRWF", "result": "≤ 0.2"}
{"variantKey": "KRHR", "result": 0.616}
{"variantKey": "QRWT", "result": 0.707}
{"variantKey": "QCAR", "result": 0.643}
{"variantKey": "QRKF", "result": 0.405}
{"variantKey": "PLQD", "result": "≤ 0.2"}
{"variantKey": "YELS", "result": "≤ 0.2"}
{"variantKey": "AFSH", "result": "≤ 0.2"}
{"variantKey": "CNGF", "result": "≤ 0.2"}
{"variantKey": "PRQG", "result": "≤ 0.2"}
{"variantKey": "QSAH", "result": "≤ 0.2"}
